- TEST_NAME: Half-life in rodents
- REPORTED_CONDITIONS: in vivo
MEASURED_ATTRIBUTE: half-life

The compound identified as Cc1noc(C)c1-c1cnc2c(-c3ccc(C(=O)O)cc3)cn([C@@H](C)c3ccccn3)c2c1 [PLX51107] registered its half-life at < 3 h

###

- SYSTEM_NAME: bromodomain of CBP (Homo sapiens, UniProt Q92793)
- Sequence (Q92793 1085-1192 limits assumed): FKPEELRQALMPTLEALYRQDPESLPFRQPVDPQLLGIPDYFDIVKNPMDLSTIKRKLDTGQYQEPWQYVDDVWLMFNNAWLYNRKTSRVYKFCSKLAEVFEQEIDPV
- TEST_NAME: Binding affinity
pKd: −log10 of the molar value.
MEASURED_ATTRIBUTE: pKd

The compound identified as Cc1noc(C)c1-c1cnc2c(-c3ccc(C(=O)O)cc3)cn([C@@H](C)c3ccccn3)c2c1 [PLX51107] registered its pKd at ~7.00
